molecular target: UniProt Q9Y2K2; experiment: SIK3 kinase inhibition (IC50)
pIC50: −log10 of the molar value.
outcome_measure: pIC50

>  <compound>
Cc1nc(Nc2ncc(C(=O)Nc3c(CF)csc3Cl)s2)cc(N2CCNC(=O)C2)n1 [Compound E12]

>  <subject_of_test>
UniProt Q9Y2K2

>  <pIC50>
7.00 to 7.30

$$$$
>  <compound>
Cc1nc(Nc2ncc(C(=O)Nc3c(Cl)csc3F)s2)cc(N2CCN(CCO)CC2)n1 [Compound E2]

>  <subject_of_test>
UniProt Q9Y2K2

>  <pIC50>
7.00 to 7.30

$$$$
>  <compound>
Cc1nc(Nc2ncc(C(=O)Nc3c(C(F)F)csc3Cl)s2)cc(N2CCN(C)C(C)C2)n1 (racemic) [Compound E16]

>  <subject_of_test>
UniProt Q9Y2K2

>  <pIC50>
7.30 to 7.70

$$$$
>  <compound>
Cc1nc(Nc2ncc(C(=O)Nc3c(C(F)(F)F)csc3Cl)s2)cc(N2CCN(CCO)CC2)n1 [Compound E5]

>  <subject_of_test>
UniProt Q9Y2K2

>  <pIC50>
7.00 to 7.30

$$$$
>  <compound>
Cc1nc(Nc2ncc(C(=O)Nc3c(CF)csc3Cl)s2)cc(N2CCN(C)C(C)C2)n1 (racemic) [Compound E10]

>  <subject_of_test>
UniProt Q9Y2K2

>  <pIC50>
7.30 to 7.70

$$$$

// batch mode: one pIC50 value per listed entry
1. Cc1nc(Nc2ncc(C(=O)Nc3c(CF)csc3Cl)s2)cc(N2CCN(CCO)CC2)n1 [Compound E3]
2. Cc1nc(Nc2ncc(C(=O)Nc3c(CF)csc3Cl)s2)cc(N2CCCN(C)CC2)n1 [Compound E11]

Solution:
7.30 to 7.70
7.30 to 7.70

// pIC50 lookup, compound = Cc1nc(Nc2ncc(C(=O)Nc3c(Cl)csc3F)s2)cc(N2CCN(C)CC2)n1 [Compound E15] , result: 7.30 to 7.70

====

pIC50: −log10 of the molar value.
Heads up, these compounds all have pIC50 values measured for SRC (GST-HIS-tag) (Homo sapiens (Human), UniProt P12931).

Examples with answers:
>  <line_notation>
Cc1nc(Nc2ncc(C(=O)Nc3c(Cl)ccnc3C)s2)cc(N2CCN(C)CC2)n1

>  <pIC50>
> 8.82

$$$$
>  <line_notation>
Cc1nc(Nc2ncc(C(=O)Nc3c(C)cncc3C)s2)cc(N2CCN(CCO)CC2)n1

>  <pIC50>
> 8.82

$$$$
>  <line_notation>
Cc1nc(Nc2ncc(C(=O)Nc3c(C)cncc3Cl)s2)cc(N2CCN(CCO)CC2)n1

>  <pIC50>
> 8.82

$$$$

Please look at the following compound next.
// pIC50 lookup, compound = Cc1nc(Nc2ncc(C(=O)Nc3c(C)noc3C)s2)cc(N2CCN(CCO)CC2)n1 , result: 8.19

====

Exercise: state measured recovery at 4 h for each of the compounds provided.
assay: Human plasma-protein binding; settings: human, plasma
One number for each entry, in %.

Examples with answers:
>  <compound>
Cc1nc(Nc2ncc(C(=O)Nc3c(CF)csc3Cl)s2)cc(N2CCN(C)C(C)C2)n1 (racemic)

>  <units_text>
%

>  <recovery at 4 h>
74

$$$$
>  <compound>
Cc1nc(Nc2ncc(C(=O)Nc3c(CF)csc3Cl)s2)cc(N2CCN(C)CC2)n1

>  <units_text>
%

>  <recovery at 4 h>
92

$$$$
>  <compound>
Cc1nc(Nc2ncc(C(=O)Nc3c(C(F)F)csc3Cl)s2)cc(N2CCN(CCO)CC2)n1

>  <units_text>
%

>  <recovery at 4 h>
77

$$$$
>  <compound>
Cc1nc(Nc2ncc(C(=O)Nc3c(CF)csc3Cl)s2)cc(N2CCCN(C)CC2)n1

>  <units_text>
%

>  <recovery at 4 h>
77

$$$$

// recovery at 4 h lookup, compound = Cc1nc(Nc2ncc(C(=O)Nc3c(CF)csc3Cl)s2)cc(N2CCN(CCO)CC2)n1 , result: 76

====

Exercise: state measured Mouse liver microsomal stability, Intrinsic clearance (L/min/mg) for each of the compounds provided.
conditions: microsomes

Examples with answers:
>  <compound>
Cc1nc(Nc2ncc(C(=O)Nc3c(C)nn(C)c3C)s2)cc(N2CCN(CCO)CC2)n1 [Compound C8]

>  <result>
< 14 µL/min/mg

$$$$
>  <compound>
Cc1nc(Nc2ncc(C(=O)Nc3c(C)noc3C)s2)cc(N2CCN(CCO)CC2)n1 [Compound C9]

>  <result>
<14

$$$$

// batch mode: one Mouse liver microsomal stability, Intrinsic clearance (L/min/mg) value per listed entry
1. Cc1nc(Nc2ncc(C(=O)Nc3c(C)cncc3Cl)s2)cc(N2CCN(CCO)CC2)n1 [Compound C4]
2. Cc1nc(Nc2ncc(C(=O)Nc3c(Cl)ccnc3C)s2)cc(N2CCN(CCO)CC2)n1 [Compound B3]

Solution:
38 µL/min/mg
22 µL/min/mg

====

target: SIK3 (Homo sapiens (Human), UniProt Q9Y2K2); settings: read-out: SIK3 IC50
pIC50: −log10 of the molar value.
Classification field: enter satisfied for pIC50 values not below 6, not satisfied for values below it.

Completed entries (count: 3):
>  <line_notation>
Cc1nc(Nc2ncc(C(=O)Nc3c(Cl)ccnc3C)s2)cc(N2CCN(C)CC2)n1

>  <subject_of_test>
SIK3 (Homo sapiens (Human), UniProt Q9Y2K2)

>  <label_class>
satisfied

$$$$
>  <line_notation>
Cc1nc(Nc2ncc(C(=O)Nc3c(C)cncc3C)s2)cc(N2CCN(CCO)CC2)n1

>  <subject_of_test>
SIK3 (Homo sapiens (Human), UniProt Q9Y2K2)

>  <label_class>
satisfied

$$$$
>  <line_notation>
Cc1nc(Nc2ncc(C(=O)Nc3c(C)nn(C)c3C)s2)cc(N2CCN(CCO)CC2)n1

>  <subject_of_test>
SIK3 (Homo sapiens (Human), UniProt Q9Y2K2)

>  <label_class>
not satisfied

$$$$

Exercise: Threshold query (pIC50 >= 6) on Cc1nc(Nc2ncc(C(=O)Nc3c(Br)ccnc3C)s2)cc(N2CCN(CCO)CC2)n1
Solution: not satisfied

====

experiment: Plasma stability in mouse plasma; format: in vitro ADME; conditions: read-out: plasma stability T1/2
outcome_measure: half-life

// half-life lookup, compound = Cc1nc(Nc2ncc(C(=O)Nc3c(C)csc3Cl)s2)cc(N2CCN(CCO)CC2)n1 [Compound C7] , result: > 2.5 h

====

details: male, CD1, mouse, in vivo, po, 30 mg/kg
outcome_measure: AUCinf (nM*h), Free (nM·h)
Numbers only, in nM·h.

>  <molecule>
Cc1nc(Nc2ncc(C(=O)Nc3c(C(F)F)csc3Cl)s2)cc(N2CCN(CCO)CC2)n1

>  <AUCinf (nM*h), Free, nM·h>
148.39

$$$$

// batch mode: one AUCinf (nM*h), Free value per listed entry
1. Cc1nc(Nc2ncc(C(=O)Nc3c(C)csc3Cl)s2)cc(N2CCN(CCO)CC2)n1
2. Cc1nc(Nc2ncc(C(=O)Nc3c(CF)csc3Cl)s2)cc(N2CCN(C)CC2)n1
3. Cc1nc(Nc2ncc(C(=O)Nc3c(CF)csc3Cl)s2)cc(N2CCN(C)C(C)C2)n1 (racemic)

Solution:
1. 58.79
2. 239.92
3. 128.06

====

target: SIK2 (Homo sapiens (Human)); assay: SIK2 kinase inhibition (IC50)
pIC50: −log10 of the molar value.
outcome_measure: pIC50

// pIC50 lookup, compound = Cc1nc(Nc2ncc(C(=O)Nc3c(C(F)(F)F)csc3Cl)s2)cc(N2CCN(CCO)CC2)n1 , result: 7.30 to 7.70

====

conditions: mouse, in vivo, po, 30 mg/kg
Exercise: state measured Rsq, Free for each of the compounds provided.

Examples with answers:
>  <compound>
Cc1nc(Nc2ncc(C(=O)Nc3c(CF)csc3Cl)s2)cc(N2CCN(C)CC2)n1

>  <Rsq, Free>
0.84

$$$$
>  <compound>
Cc1nc(Nc2ncc(C(=O)Nc3c(C(F)F)csc3Cl)s2)cc(N2CCN(CCO)CC2)n1

>  <Rsq, Free>
0.90

$$$$
>  <compound>
Cc1nc(Nc2ncc(C(=O)Nc3c(C)csc3Cl)s2)cc(N2CCN(CCO)CC2)n1

>  <Rsq, Free>
0.99

$$$$

Please look at the following compound next.
// Rsq, Free lookup, compound = Cc1nc(Nc2ncc(C(=O)Nc3c(CF)csc3Cl)s2)cc(N2CCN(C)C(C)C2)n1 (racemic) , result: 0.81

====

molecular target: UniProtKB P08183; assay: in vitro; settings: dog, MDCK-MDR1, MDCK-MDR1 cells, Mean Papp A > B (10^−6 cm/s)
outcome_measure: Papp (×10⁻⁶ cm/s)
Answers are plain numbers, in ×10⁻⁶ cm/s.

>  <compound>
Cc1nc(Nc2ncc(C(=O)Nc3c(C)cccc3Cl)s2)cc(N2CCN(CCO)CC2)n1 [Compound A8]

>  <Papp, ×10⁻⁶ cm/s>
2.4

$$$$

Please look at the following compound next.
// Papp lookup, compound = Cc1nc(Nc2ncc(C(=O)Nc3c(C)csc3Cl)s2)cc(N2CCN(CCO)CC2)n1 [Compound C7] , result: 2
